protocol.notes: Second-order rate constant for the alkaline hydrolysis was determined
Format: ADME
assay.endpoint: kHO (M⁻¹ s⁻¹)
Provide only the numeric value, understood in M⁻¹ s⁻¹.

GET /value?item= O=C1c2ccccc2C(=O)N1CO[N+](=O)[O-] &field=kHO returns 79.7

GET /value?item= COc1ccc(C(=O)OCN2C(=O)c3ccccc3C2=O)cc1 &field=kHO returns 33.9

GET /value?item= O=C(OCN1C(=O)c2ccccc2C1=O)c1ccc(Cl)cc1 &field=kHO returns 56.7

GET /value?item= O=C(OCN1C(=O)c2ccccc2C1=O)c1ccc([N+](=O)[O-])cc1 &field=kHO returns 76.8

GET /value?item= COCN1C(=O)c2ccccc2C1=O &field=kHO returns 35.3

GET /value?item= CC1(C)S[C@@H]2[C@H](NC(=O)Cc3ccccc3)C(=O)N2[C@H]1C(=O)OCN1C(=O)c2ccccc2C1=O &field=kHO returns 65.6

GET /value?item= O=C(OCN1C(=O)c2ccccc2C1=O)c1ccccc1 &field=kHO returns 50.4

GET /value?item= O=C(OCN1C(=O)c2ccc([N+](=O)[O-])cc2C1=O)c1ccccc1 &field=kHO returns 559

GET /value?item= CN1C(=O)c2ccccc2C1=O &field=kHO returns 37.5

GET /value?item= O=C1c2ccccc2C(=O)N1CCl &field=kHO returns 105.8

GET /value?item= Cc1ccc2c(c1)C(=O)N(COC(=O)c1ccccc1)C2=O &field=kHO returns 27.3
